Sourced from patent US20150322137A1

Examples of binders with documented IC60, neutralizing activity (hMPV infection of LLC-MK2 cells; GraphPad Prism 6) follow.
# Target Or Test System: F protein of human metapneumovirus strain JPS03-178 (type A2), on infectious virus (human metapneumovirus, strain JPS03-178 …)
# Protocol: cell-based or functional assay
Measured Endpoint: IC60, neutralizing activity (hMPV infection of LLC-MK2 cells; GraphPad Prism 6) (µg/mL)

binder="EV046135 (antibody, human IgG1, lambda, V domains shown) VH: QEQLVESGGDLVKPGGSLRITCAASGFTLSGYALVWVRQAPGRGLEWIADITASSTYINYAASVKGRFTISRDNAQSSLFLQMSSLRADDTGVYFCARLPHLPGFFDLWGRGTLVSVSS VL: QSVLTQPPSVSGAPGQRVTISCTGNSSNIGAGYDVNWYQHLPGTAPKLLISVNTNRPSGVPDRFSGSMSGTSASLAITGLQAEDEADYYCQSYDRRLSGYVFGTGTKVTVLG" result_number=0.0471
binder="EV046130 (antibody, human IgG1, lambda, V domains shown) VH: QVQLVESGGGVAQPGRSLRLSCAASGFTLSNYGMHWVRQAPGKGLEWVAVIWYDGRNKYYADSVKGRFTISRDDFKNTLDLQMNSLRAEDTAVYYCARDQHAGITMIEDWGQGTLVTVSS VL: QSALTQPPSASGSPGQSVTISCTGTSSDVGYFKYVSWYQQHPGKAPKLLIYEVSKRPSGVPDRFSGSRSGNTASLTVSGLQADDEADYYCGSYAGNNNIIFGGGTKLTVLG" result_number=2.01
binder="EV046136 (antibody, human IgG1, kappa, V domains shown) VH: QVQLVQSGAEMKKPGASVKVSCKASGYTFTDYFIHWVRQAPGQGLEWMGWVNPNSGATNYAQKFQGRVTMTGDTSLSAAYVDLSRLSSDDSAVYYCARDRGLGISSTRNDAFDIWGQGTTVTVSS VL: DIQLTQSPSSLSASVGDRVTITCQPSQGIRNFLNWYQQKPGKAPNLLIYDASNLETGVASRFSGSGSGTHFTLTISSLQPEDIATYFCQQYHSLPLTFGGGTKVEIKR" result_number=0.358
binder="EV046120 (antibody, human IgG1, lambda, V domains shown) VH: EVQLVESGGGLVKPGGSLRLSCAASGFTFSSYSMNWVRQAPGKGLEWVSSISSSSSYIYYADSLKGRFTVSRDNAKKSLYLQMNSLRAEDTAVYYCARVDYGTNSEVGRFDPWGQGTLVTVSS VL: QSVLTQPPSVSGTPGQRVTISCTGSSSNIGAGYAVHWYQQLPGTAPKLLIYDSINRPSGVPDRFSGSKSGTSASLAITGLQTEDEADYYCHSYDRSLSGSVFGGGTKLTVLG" result_number=0.138
